# Target or test system: recombinant human tumor necrosis factor-α (human, UniProt P01375 77-233)
# Sequence (P01375 77-233 limits assumed): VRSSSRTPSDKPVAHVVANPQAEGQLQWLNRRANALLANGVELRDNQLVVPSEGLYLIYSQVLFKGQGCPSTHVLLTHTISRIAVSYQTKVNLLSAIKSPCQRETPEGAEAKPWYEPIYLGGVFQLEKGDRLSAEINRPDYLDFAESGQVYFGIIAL
# Assay name: cell-based or functional assay
Endpoint name: EC50(ng/mL), neutralization of TNFα killing effect on L929 cell
Give your result in ng/mL as a bare value.

Binder	Unit name	Assay value
AT164 humanized anti-TNFα antibody (antibody, human IgG1, V domains shown) VH: QVQLVQSGPELKKPGASVKISCKASGYTFTHYGMHWVKQTPGRGLKWVGWINTYTGEPTYDADFQGRFTFSLDTSVSTAFLQINSLKDEDLAVYFCARYDFDGFDYWGQGTTLTVSS VL: ENVLTQSPPIMSASPGERVTMTCRASSSITFNYLHWYQQKSGDSPKVLIYSTSNLVSGVPSRFSGSGSGTSYSLTISSVEAEDAATYYCQQYSDYPYTFGGGTKLEIK	ng/mL	45.5
AT143 humanized anti-TNFα antibody (antibody, human IgG1, V domains shown) VH: QVQLVQSGPELKKPGESVKISCKASGYTFTHYGMHWVKQTPGRGLKWVGWINTYTGEPTYDADFQGRFTFSLETSTSTAYLQINSLKDEDLATYFCARYDFDGFDYWGQGTTLTVSS VL: ENVLTQSPPIMSASPGERVTMTCRASSSITFNYLHWYQQKSGDSPKVLIYSTSNLVSGVPSRFSGSGSGTSYSLTISSVEAEDAATYYCQQYSDYPYTFGGGTKLEIK	ng/mL	39.8
AT151 humanized anti-TNFα antibody (antibody, human IgG1, V domains shown) VH: QVQLVQSGPELKKPGASVKISCKASGYTFTHYGMHWVKQTPGRGLKWVGWINTYTGEPTYDADFQGRFTFSLETSVSTAFLQINSLKDEDLATYFCARYDFDGFDYWGQGTTLTVSS VL: ENVLTQSPPILSASPGEEVTMTCRASSSITFNYLHWYQQKSGDSPKVWIYSTSNLVSGVPARFSGSGSGTSYSLTISSLEAEDFATYYCQQYSDYPYTFGGGTKLEIK	ng/mL	42.1
AT132 humanized anti-TNFα monoclonal antibody (antibody, human IgG1, V domains shown, also called E001VH/F001VL) VH: QVQLVQSGPELKKPGASVKISCKASGYTFTHYGMHWVKQTPGRGLKWVGWINTYTGEPTYDADFQGRFTFSLETSVSTAFLQINSLKDEDLATYFCARYDFDGFDYWGQGTTLTVSS VL: ENVLTQSPPILSASPGERVTMTCRASSSITFNYLHWYQQKSGDSPKVWIYSTSNLVSGVPSRFSGSGSGTSYSLTISSLEAEDAATYYCQQYSDYPYTFGGGTKLEIK	ng/mL	20.4

Q: Suppose we examine the binder AT135 humanized anti-TNFα antibody (antibody, human IgG1, V domains shown) VH: QVQLVQSGPELKKPGASVKISCKASGYTFTHYGMHWVKQTPGRGLKWVGWINTYTGEPTYDADFQGRFTFSLDTSVSTAFLQINSLKDEDLAVYFCARYDFDGFDYWGQGTTLTVSS VL: ENVLTQSPPILSASPGERVTMTCRASSSITFNYLHWYQQKSGDSPKVWIYSTSNLVSGVPSRFSGSGSGTSYSLTISSLEAEDAATYYCQQYSDYPYTFGGGTKLEIK ; what EC50(ng/mL), neutralization of TNFα killing effect on L929 cell value has been reported?
Result: 50
